All values here come from paper PMC11125646.

- test.method.notes: Cytotoxicity in Vero-76 cells (MTT)
- test.context: African green monkey (Cercopithecus aethiops)
measurement.name: CC50 at 24 h

INSERT INTO results (molecule, reported_measurement) VALUES
  ('O=c1c(O)c(-c2ccc(O)c(O)c2)oc2cc(O)cc(O)c12 [Quercetin, reference compound]', '> 100 µM');

###

- test.method.notes: in vitro
- test.context: African green monkey (Cercopithecus aethiops)
measurement.name: CC50 at 24 h

INSERT INTO assay_data (compound, measurement_name, reported_measurement) VALUES
  ('COc1cc(/C=C/C(=O)Oc2cc(O)c3c(=O)c(O)c(-c4ccc(O)c(O)c4)oc3c2)cc(OC)c1O [Compound 7]', 'CC50 at 24 h', '> 100 µM');

###

- test.method.notes: Cytotoxicity in SK-MES-1 cells (MTT)
- Type: cell-based
- test.context: human; cinnamic acids; read-out: SK-MES-1 CC50 (Table S1)
measurement.name: CC50

INSERT INTO assay_data (structure_as_smiles, reported_measurement) VALUES
  ('COc1cc(/C=C/C(=O)O)cc(OC)c1O', '> 100 µM');

###

- test.method.notes: Cytotoxicity in SK-MES-1 cells (MTT)
- Type: cell-based
- test.context: human
measurement.name: CC50

INSERT INTO measurements (structure_as_smiles, measurement_name, reported_measurement) VALUES
  ('O=C(O)/C=C/c1ccc(O)c(O)c1', 'CC50', '> 100 µM');

###

- test.method.notes: Cytotoxicity in Vero-76 cells (MTT)
- test.context: African green monkey (Cercopithecus aethiops)
measurement.name: CC50 at 72 h (µM)

INSERT INTO results (compound, unit_abbrev, reported_measurement) VALUES
  ('O=c1c(O)c(-c2ccc(O)c(O)c2)oc2cc(O)cc(O)c12 [Quercetin, reference compound]', 'µM', 100);

###

- test.method.notes: in vitro
- test.context: African green monkey (Cercopithecus aethiops)
measurement.name: CC50 at 72 h

INSERT INTO measurements (structure_as_smiles, reported_measurement) VALUES
  ('COc1cc(/C=C/C(=O)Oc2cc(O)c3c(=O)c(O)c(-c4ccc(O)c(O)c4)oc3c2)cc(OC)c1O', '> 100 µM');

###

- test.method.notes: in vitro
- test.context: African green monkey (Cercopithecus aethiops)
measurement.name: CC50 at 120 h (µM)

INSERT INTO assay_data (structure_as_smiles, measurement_name, unit_abbrev, reported_measurement) VALUES
  ('O=C(/C=C/c1cccc(O)c1)Oc1cc(O)c2c(=O)c(O)c(-c3ccc(O)c(O)c3)oc2c1', 'CC50 at 120 h', 'µM', 75),
  ('COc1ccc(/C=C/C(=O)Oc2cc(O)c3c(=O)c(O)c(-c4ccc(O)c(O)c4)oc3c2)cc1OC', 'CC50 at 120 h', 'µM', 54.7),
  ('O=C(/C=C/c1ccc2c(c1)OCO2)Oc1cc(O)c2c(=O)c(O)c(-c3ccc(O)c(O)c3)oc2c1', 'CC50 at 120 h', 'µM', 30);

###

- test.method.notes: Cytotoxicity in SK-MES-1 cells (MTT)
- Assay type: cell-based
- test.context: human
Listing: CC50 at 48 h of selected compounds
measurement.name: CC50 at 48 h

INSERT INTO measurements (compound, measurement_name, reported_measurement) VALUES
  ('O=C(/C=C/c1ccc2c(c1)OCO2)Oc1cc(O)c2c(=O)c(O)c(-c3ccc(O)c(O)c3)oc2c1', 'CC50 at 48 h', '33 µM'),
  ('CCC(CC)COC(=O)[C@H](C)N[P@](=O)(OC[C@H]1O[C@@](C#N)(c2ccc3c(N)ncnn23)[C@H](O)[C@@H]1O)Oc1ccccc1 [Remdesivir, reference compound]', 'CC50 at 48 h', '> 100 µM'),
  ('O=C(/C=C/c1ccc(O)c(O)c1)Oc1cc(O)c2c(=O)c(O)c(-c3ccc(O)c(O)c3)oc2c1', 'CC50 at 48 h', '> 100 µM'),
  ('COc1cc(/C=C/C(=O)Oc2cc(O)c3c(=O)c(O)c(-c4ccc(O)c(O)c4)oc3c2)cc(OC)c1O', 'CC50 at 48 h', '> 100 µM');

###

- test.method.notes: Cytotoxicity in Caco-2 cells (MTT)
- Format: cell-based, human
- test.context: human; Caco-2, 72 h, MTT
Listing: CC50 at 72 h of selected molecules
measurement.name: CC50 at 72 h (µM)

INSERT INTO assay_data (molecule, measurement_name, unit_abbrev, reported_measurement) VALUES
  ('COc1cc(/C=C/C(=O)Oc2cc(O)c3c(=O)c(O)c(-c4ccc(O)c(O)c4)oc3c2)cc(OC)c1O', 'CC50 at 72 h', 'µM', 70),
  ('O=c1c(O)c(-c2ccc(O)c(O)c2)oc2cc(O)cc(O)c12 [Quercetin, reference compound]', 'CC50 at 72 h', 'µM', 61);

###

- test.method.notes: in vitro
- test.context: African green monkey (Cercopithecus aethiops)
measurement.name: CC50 at 120 h (µM)

INSERT INTO measurements (molecule, measurement_name, unit_abbrev, censor_symbol, reported_measurement) VALUES
  ('O=C(/C=C/c1ccc(O)cc1)Oc1cc(O)c2c(=O)c(O)c(-c3ccc(O)c(O)c3)oc2c1', 'CC50 at 120 h', 'µM', '=', 60),
  ('CCN(CCO)CCCC(C)Nc1ccnc2cc(Cl)ccc12 (stereo not shown) [Hydroxychloroquine, reference compound]', 'CC50 at 120 h', 'µM', '=', 60),
  ('COc1cc(/C=C/C(=O)Oc2cc(O)c3c(=O)c(O)c(-c4ccc(O)c(O)c4)oc3c2)cc(OC)c1O', 'CC50 at 120 h', 'µM', '=', 100),
  ('O=C(/C=C/c1ccccc1O)Oc1cc(O)c2c(=O)c(O)c(-c3ccc(O)c(O)c3)oc2c1', 'CC50 at 120 h', 'µM', '=', 78),
  ('CCC(CC)COC(=O)[C@H](C)N[P@](=O)(OC[C@H]1O[C@@](C#N)(c2ccc3c(N)ncnn23)[C@H](O)[C@@H]1O)Oc1ccccc1 [Remdesivir, reference compound]', 'CC50 at 120 h', 'µM', '>', 100),
  ('O=C(/C=C/c1ccc(O)c(O)c1)Oc1cc(O)c2c(=O)c(O)c(-c3ccc(O)c(O)c3)oc2c1', 'CC50 at 120 h', 'µM', '=', 70),
  ('COc1cc(/C=C/C(=O)Oc2cc(O)c3c(=O)c(O)c(-c4ccc(O)c(O)c4)oc3c2)ccc1O', 'CC50 at 120 h', 'µM', '=', 11.4);

###

- test.method.notes: Cytotoxicity in Vero-76 cells (MTT)
- test.context: African green monkey (Cercopithecus aethiops)
measurement.name: CC50 at 120 h (µM)

INSERT INTO results (compound, reported_measurement) VALUES
  ('O=c1c(O)c(-c2ccc(O)c(O)c2)oc2cc(O)cc(O)c12 [Quercetin, reference compound]', 20);
